Test system: Aorta
MEASUREMENT DESCRIPTION: Vasorelaxant activity against phenylephrine-induced contraction in Sprague-Dawley rat aorta
Assay type: functional, tissue-based
ENDPOINT LABEL: EC50 (µM)

INSERT INTO results (compound, endpoint_label, reported_value) VALUES
  ('CC(C)=CCc1c(O)cc(O)c(C(=O)/C=C/c2ccc3c(c2)OCO3)c1O', 'EC50', 4.21),
  ('CC(C)=CCc1c(O)cc(O)c2c1OC(c1ccc3c(c1)OCO3)CC2=O (racemic)', 'EC50', 1.32),
  ('COc1cc(C2CC(=O)c3c(O)cc(O)c(CC=C(C)C)c3O2)ccc1O (racemic)', 'EC50', 10.1),
  ('CC(C)=CCc1c(O)cc(O)c2c1OC(c1ccccc1)CC2=O (racemic)', 'EC50', 5.79),
  ('CC(C)=CCc1c(O)cc(O)c(C(=O)/C=C/c2ccc(Cl)cc2)c1O', 'EC50', 679);

I. COc1cc(-c2cc(=O)c3c(O)cc(O)c(CC=C(C)C)c3o2)ccc1O
II. CC(C)=CCc1c(O)cc(O)c2c1OC(c1cccc(Br)c1)CC2=O (racemic)
III. CC(C)=CCc1c(O)cc(O)c2c(=O)cc(-c3cccc(Br)c3)oc12
**Q:** Ascending by EC50, please. // list labels; follow requested order
**A:** II, I, III
